- tested_target: Transient receptor potential cation channel subfamily V member 1 (Homo sapiens, UniProt Q8NER1)
- Sequence (Q8NER1 whole entry): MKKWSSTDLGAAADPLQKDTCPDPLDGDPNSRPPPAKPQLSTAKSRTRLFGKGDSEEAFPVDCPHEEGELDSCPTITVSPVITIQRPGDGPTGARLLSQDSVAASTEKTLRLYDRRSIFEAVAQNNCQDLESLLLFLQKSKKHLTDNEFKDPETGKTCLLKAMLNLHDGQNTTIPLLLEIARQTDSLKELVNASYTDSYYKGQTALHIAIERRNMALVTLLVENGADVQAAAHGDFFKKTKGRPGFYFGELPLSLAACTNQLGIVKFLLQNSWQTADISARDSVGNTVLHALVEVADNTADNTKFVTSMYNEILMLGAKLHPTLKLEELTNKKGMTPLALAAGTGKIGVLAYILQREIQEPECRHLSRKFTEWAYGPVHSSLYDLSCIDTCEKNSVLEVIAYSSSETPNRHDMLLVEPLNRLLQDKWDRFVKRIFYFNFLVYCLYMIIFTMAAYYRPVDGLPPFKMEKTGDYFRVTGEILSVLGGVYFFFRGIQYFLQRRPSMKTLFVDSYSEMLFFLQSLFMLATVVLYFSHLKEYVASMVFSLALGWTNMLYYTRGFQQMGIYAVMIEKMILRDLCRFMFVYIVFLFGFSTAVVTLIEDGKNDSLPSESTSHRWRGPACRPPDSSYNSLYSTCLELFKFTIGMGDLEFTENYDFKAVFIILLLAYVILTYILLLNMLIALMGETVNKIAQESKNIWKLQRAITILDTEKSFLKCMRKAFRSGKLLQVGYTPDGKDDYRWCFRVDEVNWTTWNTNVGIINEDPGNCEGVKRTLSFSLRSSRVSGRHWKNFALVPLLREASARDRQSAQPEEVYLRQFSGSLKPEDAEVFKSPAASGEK
- test_summary: Inhibition of capsaicin-induced calcium uptake by transient receptor potential vanilloid type 1 expressed in CHO cells
- Type: functional, cell-based
observation_type: pIC50
Would you please state pIC50, meaning minus log10 of the concentration in mol/L, as a bare number?

Ask: # input compound: `O=C(/C=C/c1ccc(C(F)(F)F)nc1N1CCOCC1)Nc1ccc2c(c1)OCCO2` ; wanted: its pIC50
Result: 7.82

Ask: Entry under review: `CC(C)(C)c1ccc(/C=C/C(=O)Nc2ccc3c(c2)OCO3)cc1` . Reported pIC50?
Result: 6.24

Ask: Can you share its pIC50? I mean this compound: `CC/C(=C\c1ccc(C(C)(C)C)cc1)C(=O)Nc1ccc2c(c1)OCCO2`
Result: 6.68

Ask: Item `CN(C)CCC/C(=C\C(=O)Nc1ccc2c(c1)OCCO2)c1ccc(C(C)(C)C)cc1` has what recorded pIC50?
Result: 5.41

Ask: Name the reported pIC50 value associated with the compound `O=C(/C=C/c1ccc([N+](=O)[O-])cc1)Nc1ccc2c(c1)OCCO2`
Result: 6.72

Ask: Given `CCOC(=O)CC/C(=C\C(=O)Nc1ccc2c(c1)OCCO2)c1ccc(C(C)(C)C)cc1` , state its recorded pIC50.
Result: 7.44

Ask: What does the data say about its pIC50? Entry: `COc1ccc(NC(=O)/C=C/c2ccc(C(C)(C)C)cc2)cc1`
Result: 6.85

Ask: # input compound: `CC(C)(C)c1ccc(/C=C/C(=O)Nc2ccc3c(c2)OCCN3)cc1` ; wanted: its pIC50
Result: 7.80

Ask: Find the recorded pIC50 belonging to `COc1ccc(NC(=O)/C=C/c2ccc(C(C)(C)C)cc2)cc1OC` and report it.
Result: 6.77

---

- test_summary: Area under concentration time curve from time 0 to infinity was determined in rat after intravenous administration of 2 mg/kg
- Type: ADME, organism-based
- Parameters: time infinity, dose 2 mg/kg, route intravenous
- conditions: in vivo
observation_type: AUC (ng·h/mL)
Give the value in ng·h/mL but do not write ng·h/mL after it.

Ask: Entry `O=C(/C=C/c1ccc(C(F)(F)F)nc1N1CCCCC1)Nc1ccc2cccnc2c1` : reported AUC = ?
Result: 2100

Ask: Quick one: AUC for `O=C(/C=C/c1ccc(C(F)(F)F)nc1N1CCOCC1)Nc1ccc2cccnc2c1` ?
Result: 2300

---

- tested_target: Transient receptor potential cation channel subfamily V member 1 (Homo sapiens, UniProt Q8NER1)
- test_summary: Inhibition of pH-induced calcium uptake by transient receptor potential vanilloid type 1 expressed in CHO cells
- Type: functional, cell-based
pIC50: −log10 of the molar value.
Parameter threshold = 6. Response is satisfied when pIC50 meets or exceeds it, else not satisfied.

Ask: Item `CCCCc1ccc(/C=C/C(=O)Nc2ccc3c(c2)OCCO3)cc1` with pIC50 of 6 or above?
Result: not satisfied

Ask: Could you verify whether the entry `O=C(/C=C/c1ccc(Cl)cc1)Nc1ccc2c(c1)OCCO2` shows pIC50 of no less than 6?
Result: satisfied

Ask: Could you please find out whether `CC(C)C/C(=C\C(=O)Nc1ccc2c(c1)OCCO2)c1ccc(C(C)(C)C)cc1` has pIC50 that meets 6 or exceeds it?
Result: satisfied

Ask: Determine whether measured pIC50 meets or exceeds 6 for `O=C(/C=C/c1ccc([N+](=O)[O-])cc1)Nc1ccc2c(c1)OCCO2`
Result: satisfied

Recorded values, source ChEMBL document CHEMBL1139498.
